- System: Kansasii
- experimentDescription: Widened tuberculostatic tests
- Type: cell-based, Mycobacterium
Give measured MIC for each item. Keep answers brief.
Give bare numbers, in μg cm^−3.

Would you please look over these solved cases?
- smilesInput: "CSC(=NNC(=O)c1ccc(O)cc1)SC"
  unitOfMeasurement: "μg cm^−3"
  val: 25
- smilesInput: "CSC(=NNC(=O)c1ccc(Cl)cc1)SC"
  unitOfMeasurement: "μg cm^−3"
  val: 25
- smilesInput: "CSC(=NNC(=O)c1ccc(Cl)c(Cl)c1)SC"
  unitOfMeasurement: "μg cm^−3"
  val: 6.2

As a next step, examine the compound that follows.
// compound CSC(=NNC(=O)c1ccc(Cl)cc1Cl)SC , assay Kansasii, MIC value: 25

Cited source for all entries: paper PMC4494766
